Below, each entry is listed with its recorded pIC50.
# experimentalTarget: IDO1 (Homo sapiens)
# testProtocol: IDO1 Cellular Assay in HeLa Cells Stimulated with IFNγ
# Type: cell-based
# Design: endogenous in cells; host or cells: HeLa cells stimulated with IFNγ
# experimentalSetup: HeLa cells stimulated with IFNγ 100 ng/mL, 300 uM L-tryptophan, about 48 hours, fluorescence readout; read-out: IDO1 HELA Cell Assay, IC50
pIC50: −log10 of the molar value.
propertyLabel: pIC50

- CC(C)(O)c1nccc(N2CC3CC3c3nc(C4(NC(=O)c5ccc(F)cc5)CC4)ccc32)n1 (centres unmarked) [Example 18]: 7.92
- CC(C)(C)OC(=O)N1C[C@H]2C[C@H]2c2nc(C3(NC(=O)c4ccc(F)cc4)CC3)ccc21 [Example 53]: 8.34
- Cc1nccc(N2c3ccc(C4(NC(=O)c5ccc(F)cc5)CC4)nc3C3CC2C3C)n1 (centres unmarked) [Example 48]: 7.12
- C[C@H](NC(=O)c1ccc(F)cc1)c1ccc2c(n1)[C@H]1C[C@H]1CN2C(=O)OC1CC1 [Example 25]: 7.81
- Cc1nccc(N2C[C@H]3C[C@H]3c3nc([C@]4(NC(=O)c5ccc(F)cc5)C[C@H]4C)ccc32)n1 [Example 44]: 8.36
- Cc1nccc(N2C[C@H]3C[C@H]3c3nc([C@@]4(NC(=O)c5ccc(F)cc5)C[C@@H]4C)ccc32)n1 [Example 45]: 8.47
- CC(C)(NC(=O)c1ccc(F)cc1)c1ccc2c(n1)C1CC1CN2 (centres unmarked) [Example 54]: 5.31
- Cc1nccc(N2c3ccc(C4(NC(=O)c5ccc(F)cc5)CC4)cc3C3CC32)n1 (single isomer, unassigned) [Example 9]: 8.09
- Cc1nccc(N2c3ccc(C4(NC(=O)c5ccc(F)cc5)CC4)cc3CC3CCC32)n1 (centres unmarked) [Example 5]: 8.33
- C[C@H](NC(=O)c1ccc(F)cc1)c1ccc2c(n1)[C@@H]1C[C@@H]1CN2C(=O)OC1CC1 [Example 26]: 7.46
- Cc1nccc(N2C[C@H]3C[C@H]3c3nc([C@]4(NC(=O)c5ccc(F)cc5)C[C@@H]4C)ccc32)n1 [Example 46]: 7.61

###

# experimentalTarget: IDO1 (Homo sapiens, UniProt P14902)
# Sequence (P14902 whole entry): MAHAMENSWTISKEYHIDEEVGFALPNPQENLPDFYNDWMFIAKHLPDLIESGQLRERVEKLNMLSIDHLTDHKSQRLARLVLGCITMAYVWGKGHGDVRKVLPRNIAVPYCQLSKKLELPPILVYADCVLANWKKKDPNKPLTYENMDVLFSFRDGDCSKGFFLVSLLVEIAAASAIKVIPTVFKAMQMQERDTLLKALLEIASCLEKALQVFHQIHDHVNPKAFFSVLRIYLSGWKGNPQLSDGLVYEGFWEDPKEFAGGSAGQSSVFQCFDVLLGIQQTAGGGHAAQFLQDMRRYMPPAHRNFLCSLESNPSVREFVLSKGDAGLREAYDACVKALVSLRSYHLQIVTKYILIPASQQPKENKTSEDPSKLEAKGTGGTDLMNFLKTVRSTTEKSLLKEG
# testProtocol: IDO1 Cellular Assay in HeLa Cells Stimulated with IFNγ
# Assay type: cell-based
# Set-up: endogenous in cells; host or cells: HeLa cells stimulated with IFNγ
# experimentalSetup: HeLa cells stimulated with IFNγ 100 ng/mL, 300 uM L-tryptophan, about 48 hours, fluorescence readout; read-out: IDO1 HELA Cell Assay, IC50
pIC50: −log10 of the molar value.
propertyLabel: pIC50

- Cc1nccc(N2CC3CC3c3nc(C4(NC(=O)c5ccc(F)cc5)CC4C)ccc32)n1 (racemic): 7.28
- CC(NC(=O)c1ccc(F)cc1)c1ccc2c(n1)C1CC1CN2C(=O)OC(C)(C)C (stereo not shown): 7.68
- Cc1nccc(N2C[C@@H]3C[C@@H]3c3nc([C@@]4(NC(=O)c5ccc(F)cc5)C[C@H]4C)ccc32)n1: 8.63
- Cc1nccc(N2c3ccc(C4(NC(=O)c5ccc(F)cc5)CC4)nc3C3CC2C3)n1: 8.09

###

Below, each entry is listed with its recorded IC50.
# experimentalTarget: IDO1 (Homo sapiens)
# testProtocol: IDO1 Cellular Assay in HeLa Cells Stimulated with IFNγ
# Type: cell-based
# Parameters: endogenous in cells; host or cells: HeLa cells stimulated with IFNγ
# experimentalSetup: HeLa cells stimulated with IFNγ 100 ng/mL, 300 uM L-tryptophan, about 48 hours, fluorescence readout; read-out: IDO1 HELA Cell Assay, IC50
propertyLabel: IC50 (nM)

- O=C(NC1(c2ccc3c(n2)C2CC(C2)N3C(=O)OCc2ccccc2)CC1)c1ccc(F)cc1: 20.4
- Cc1nccc(N2C[C@@H]3C[C@@H]3c3cc(C4(NC(=O)c5ccc(F)cc5)CC4)ccc32)n1 (single isomer, unassigned): 1.5
- Cc1nccc(N2CC3CC3c3cc(C4(NC(=O)c5ccc(F)cc5)CC4)ccc32)n1 (stereo not shown): 1.67
- O=C(NC1(c2ccc3c(n2)C2CC2CN3)CC1)c1ccc(F)cc1 (stereo not shown): 2300
- O=C(NC1(c2ccc3c(n2)[C@@H]2C[C@@H]2CN3C(=O)OC2CCOCC2)CC1)c1ccc(F)cc1: 17
- O=C(C1CC1)N1CC2CC2c2cc(C3(C(=O)Nc4ccc(F)cc4)CCC3)ccc21 (single isomer, unassigned) [Example 4]: 2.92
- Cc1nccc(N2CC3CC3c3nc(C(C)(C)NC(=O)c4ccc(F)cc4)ccc32)n1 (racemic): 90
- O=C(C1CC1)N1CC2CC2c2cc(C3(C(=O)Nc4ccc(F)cc4)CCC3)ccc21 (single isomer, unassigned) [Example 3]: 44
- CC(C)(NC(=O)c1ccc(F)cc1)c1ccc2c(n1)[C@H]1C[C@H]1CN2C(=O)OC1CC1 (single isomer, unassigned): 221
- Cc1nccc(N2C[C@@H]3C[C@@H]3c3nc(C4(NC(=O)c5ccc(F)cc5)CC4)ccc32)n1 (stereo in doubt): 1.91
- CC(C)(NC(=O)c1ccc(F)cc1)c1ccc2c(n1)[C@@H]1C[C@@H]1CN2C(=O)OC1CC1 (single isomer, unassigned): 4.05
- Cc1nccc(N2C[C@H]3C[C@H]3c3nc([C@@]4(NC(=O)c5ccc(F)cc5)C[C@H]4C)ccc32)n1: 3.27
- CCC(NC(=O)c1ccc(F)cc1)c1ccc2c(n1)C1CC1CN2C(=O)OC1CC1 (single isomer, unassigned) [Example 36]: 211
- O=C(NC1(c2ccc3c(n2)C2CC(C2)N3C(=O)OC2CC2)CC1)c1ccc(F)cc1: 5.76
- COC(=O)c1nccc(N2CC3CC3c3nc(C4(NC(=O)c5ccc(F)cc5)CC4)ccc32)n1 (stereo not shown): 9.02
- CCc1nccc(N2CC3CC3c3nc(C4(NC(=O)c5ccc(F)cc5)CC4)ccc32)n1 (stereo not shown): 3.5
- CC(C)(C)OC(=O)N1CC2CC2c2nc(C3(NC(=O)c4ccc(F)cc4)CC3)ccc21 (stereo not shown): 96.7
- CC(C)(NC(=O)c1ccc(F)cc1)c1ccc2c(n1)C1CC1CN2C(=O)C(F)(F)F (stereo not shown): 1300
- C[C@@H](NC(=O)c1ccc(F)cc1)c1ccc2c(n1)[C@H]1C[C@H]1CN2C(=O)OC1CC1: 29.3
- Cc1nccc(N2c3ccc(C4(NC(=O)c5ccc(F)cc5)CC4)cc3C3CC32)n1 (single isomer, unassigned) [Example 8]: 2.91
- Cc1nccc(N2C[C@@H]3C[C@@H]3c3nc([C@]4(NC(=O)c5ccc(F)cc5)C[C@@H]4C)ccc32)n1: 3.17
- O=C(NC1(c2ccc3c(n2)[C@@H]2C[C@@H]2CN3C(=O)OC2CC2)CC1)c1ccc(F)cc1 (single isomer, unassigned): 6.03
- Cc1nccc(N2C[C@@H]3C[C@@H]3c3nc([C@]4(NC(=O)c5ccc(F)cc5)C[C@H]4C)ccc32)n1: 10.5
- Cc1nccc(N2C[C@@H]3C[C@@H]3c3nc([C@@]4(NC(=O)c5ccc(F)cc5)C[C@@H]4C)ccc32)n1: 2.83
- CC(C)(C)OC(=O)N1CC2CC2c2nc(C(C)(C)NC(=O)c3ccc(F)cc3)ccc21 (stereo not shown): 16.6
- CC(C)(NC(=O)c1ccc(F)cc1)c1ccc2c(n1)C1CC1CN2C(=O)OC1CC1 (single isomer, unassigned): 7.56
- C[C@@H](NC(=O)c1ccc(F)cc1)c1ccc2c(n1)[C@@H]1C[C@@H]1CN2C(=O)OC1CC1: 3.23
- CC(C)(C)OC(=O)N1C[C@@H]2C[C@@H]2c2nc(C3(NC(=O)c4ccc(F)cc4)CC3)ccc21: 96.6

###

# experimentalTarget: UniProtKB P14902
# testProtocol: IDO1 Human Whole Blood Assay
# Assay type: cell-based
# experimentalSetup: LPS and IFNγ 100 ng/mL, overnight (18 h), kynurenine by LC/MS/MS
Rule: IC50 below 0.2 µM gives true. Equal to or above 0.2 µM gives false.

• O=C(C1CC1)N1CC2CC2c2cc(C3(C(=O)Nc4ccc(F)cc4)CCC3)ccc21 (single isomer, unassigned) [Example 4] = true
• O=C(NC1(c2ccc3c(n2)[C@@H]2C[C@@H]2CN3C(=O)OC2CC2)CC1)c1ccc(F)cc1 (single isomer, unassigned) [Example 21] = false
• CCc1nccc(N2CC3CC3c3nc(C4(NC(=O)c5ccc(F)cc5)CC4)ccc32)n1 (stereo not shown) [Example 14] = true
• CC(C)(NC(=O)c1ccc(F)cc1)c1ccc2c(n1)[C@@H]1C[C@@H]1CN2C(=O)OC1CC1 (single isomer, unassigned) [Example 33] = false
• CC(C)(O)c1nccc(N2CC3CC3c3nc(C4(NC(=O)c5ccc(F)cc5)CC4)ccc32)n1 (stereo not shown) [Example 18] = false
• C[C@@H](NC(=O)c1ccc(F)cc1)c1ccc2c(n1)[C@@H]1C[C@@H]1CN2C(=O)OC1CC1 [Example 27] = false
• CCC(NC(=O)c1ccc(F)cc1)c1ccc2c(n1)C1CC1CN2C(=O)OC1CC1 (single isomer, unassigned) [Example 37] = true
